method: compound binding in COS7 lysate, probe aLAP1, primary screen, cell lysate, small-molecule microarray (AID 1124);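 also: lysate comes from COS7 cells expressing LAP1 and is applied at 0.3 µg/mL; score merges spot fluorescence near 667 nm with signal-to-noise over triplicate slides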
measurement_conditions: probe aLAP1, fluorescence, higher = more signal
measured_quantity: composite z-score

compound	numeric_result
CCCCO[C@H]1C[C@H]2C(I)=C[C@@H]1C(=O)[C@]21CO1	-0.287
CCOC(=O)C[C@H]1[C@H](OC(=O)c2cc3ccccc3oc2=O)[C@@H](NC(=O)Cc2ccc(OC)cc2)c2cc(OCCCO)ccc2N1C(=O)c1ccc2ccccc2n1	0.096
C=CCC(OC(C)=O)[C@@H]1[C@@H](N(Cc2cc3ccccc3o2)C(=O)c2ccc(-c3ccccc3)cc2)c2cc(OCCCO)ccc2N1C(=O)c1ccc2ccccc2c1 (some centres undefined)	0.0944
COCCCNC(=O)[C@]1(CCS(=O)(=O)c2ccccc2)N=C(c2ccc(OCCCO)cc2)O[C@@H]1c1ccccc1CN=[N+]=[N-]	0.295

###

method: binders of probe aFGF10 on microarray, primary screen, stem cell growth factor project, biochemical, small-molecule microarray, fluorescence 635/667 (AID 1071);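 also: score merges 667 nm spot intensity and signal to noise from triplicate slides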
measurement_conditions: higher = more signal
Note to self: values exactly at 0.4 are 1. So composite z-score at or above 0.4 is 1, below is 0.

compound	class_assignment
O=C1C2C=CC(C(O)c3ccc(Br)cc3)N(Nc3ccccc3F)C2C(=O)N1c1ccccc1 (stereo not given)	0
O=C1O[C@@H](c2ccccc2)[C@@H](c2ccccc2)N2[C@@H](c3ccc(OCCO)cc3)[C@]3(C(=O)Nc4ccccc43)[C@@H](C(=O)O)[C@H]12	1
COc1ccc([Si](C)(C)[C@@H]2[C@@H](CC(=O)N(CCO)Cc3ccccc3)O[C@]3(C(=O)N(Cc4cccc(N5CCOC5=O)c4)c4ccccc43)[C@H]2C)cc1	1
[N-]=[N+]=NCc1ccccc1[C@H]1OC(c2ccc(OCCCO)cc2)=N[C@@]1(CCS(=O)(=O)c1ccccc1)C(=O)NCC(O)CO (stereo not given in full)	1
CO[C@]12C=C(Br)[C@@H](C[C@@H]1c1cccc(C)c1)[C@@]1(CO1)C2=O	0
COc1ccc(NC(=O)O[C@H]2[C@H](OC(=O)Nc3ccccc3)[C@H](OC(=O)Nc3ccccc3)[C@@H](OC)O[C@@H]2CO)cc1	1
CC=CC(O)C1C=CC2C(=O)N(c3ccccc3)C(=O)C2N1Nc1ccccc1F (stereo not given)	1
O=C1OCCC/C=C\[C@H]2OC34C=CCN(CCN5CCOCC5)C(=O)[C@H]3N(CCCCCCO)C(=O)[C@@H]4C12 (stereo not given in full)	0
C=C(C)C1CCC(C(O)C2C=CC3C(=O)N(C)C(=O)C3N2N2CCCCC2)CC1 (stereo not given)	1
COc1ccccc1CN1C(=O)c2ccccc2[C@@]2(Cc3ccccc3N(CC(F)(F)F)C2=O)[C@@H]1c1ccc(CO)cc1	0
COCCOC(=O)N1C(=O)[C@@]2(c3cc(C#CC4=CCCCC4)ccc31)[C@H](c1ccccc1OCCO)N1[C@H](c3ccccc3)[C@H](c3ccccc3)OC(=O)[C@H]1[C@@H]2C(=O)Nc1nc2ccccc2s1	0
COc1ccc(C(O)C2C=CC3C(=O)N(c4ccccc4)C(=O)C3N2Nc2ccc([N+](=O)[O-])cc2)cc1 (stereo not given)	1
CN(C)CCCNC(=O)[C@@]1(C)c2ccccc2C(=O)N(Cc2ccccc2)[C@H]1c1ccc(CO)cc1	0
C=C(/C(=C/C[C@@H](OC(C)=O)c1cccc(OCCO)c1)c1cc(C(=O)OC)ccc1OC)C(C)C	1

###

method: small-molecule microarray binders of probe aNog, primary screen, biochemical, biotinylated probe, 635/667 nm fluorescence (AID 1115);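 also: probe is biotinylated aNog protein used at 0.15 µg/mL for 1 h at 4 C; z-score combines 667 nm fluorescence of each spot with its signal to noise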
measurement_conditions: higher = more signal
Lab note: compare composite z-score against 0.1. Equal or greater, write True. Smaller, write False.

compound	class_assignment
O=C1C2C=CC(C(O)c3ccc(F)cc3)N(n3cnnc3)C2C(=O)N1Cc1ccccc1 (stereo unspecified)	True
COC(=O)[C@@]1(Cc2ccccc2)[C@H]2c3cc(C(=O)N(C)C)n(Cc4c(CO)[nH]cc(C)c4=O)c3C[C@H]2CN1C(=O)c1ccccc1	True
CC1CC/C=C\[C@H]2OC34C=CCN(c5ccc(Cl)cc5)C(=O)[C@H]3N(CCCCCO)C(=O)[C@]4(C)C2C(=O)O1 (stereo partly specified)	False
CCOC(=O)C[C@H]1[C@H](OC(=O)c2ccccc2-c2ccccc2)[C@@H](NC(=O)C2CCCCC2)c2cc(OCCCO)ccc2N1C(=O)Cc1ccc(OC)cc1	False
O=C1O[C@H](c2ccccc2)[C@H](c2ccccc2)N2[C@H]1[C@@H](C(=O)Nc1nc3ccccc3s1)[C@]1(C(=O)Nc3ccc(C#CCCO)cc31)[C@H]2c1ccc(O)cc1	False
COC(=O)C(CC#Cc1ccc2c(c1)[C@]1(C(=O)N2)[C@H](c2ccccc2OCCO)N2[C@H](c3ccccc3)[C@H](c3ccccc3)OC(=O)[C@H]2[C@@H]1C(=O)NC[C@H](O)c1ccccc1)C(=O)OC	True

###

method: PSAC antagonists in infected red cells, primary screen, cell-based, P. falciparum Indochina, OD700, 18 h (AID 1157)
measurement_conditions: P. falciparum Indochina infected erythrocytes, osmotic lysis OD700, 18 h; higher = more signal, called active from +8 up or from −8 down
Think of 1 as a floor: if z-score stands on it or above, it is yes (1); beneath it, no (0).

entry_smiles	class_assignment
O=C1C[C@@](C(=O)NCCN2CCOCC2)(c2ccc([N+](=O)[O-])cc2)[C@@H](c2ccc(CO)cc2I)N1C1CCCCC1	no (0)
COCCOC(=O)N1C(=O)[C@@]2(c3cc(C#CC4=CCCCC4)ccc31)[C@H](c1ccc(OCCO)cc1)N1[C@H](c3ccccc3)[C@H](c3ccccc3)OC(=O)[C@H]1[C@@H]2C(=O)N1CCN(c2ncccn2)CC1	no (0)
CN(C)C(=O)[C@@]1(CCS(=O)(=O)c2ccccc2)N=C(c2ccc(OCCCO)cc2)O[C@H]1c1ccccc1	yes (1)
CN(C)C(=O)[C@]1(CCS(=O)(=O)c2ccccc2)N=C(c2ccc(OCCCO)cc2)O[C@@H]1c1ccccc1N=[N+]=[N-]	yes (1)
COC(=O)C(CC#Cc1ccc2c(c1)[C@]1(C(=O)N2)[C@H](C(=O)N2CCN(c3ncccn3)CC2)[C@H]2C(=O)O[C@H](c3ccccc3)[C@H](c3ccccc3)N2[C@@H]1c1ccc(OCCO)cc1)C(=O)OC	yes (1)
COCC1=C2[C@@H](CCc3ccccc3)OB(O)C[C@@H]2[C@@H]2C(=O)C=CC(=O)[C@@H]2C1	no (0)

###

method: small-molecule microarray binders of probe aShh, primary screen, biochemical, biotinylated probe, 635/667 nm fluorescence (AID 1114);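 also: probe is biotin-labelled aShh protein from a stem cell growth factor screen; measures binding of labelled protein to compounds printed on the slide; score merges feature fluorescence at 667 nm with signal-to-noise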
measurement_conditions: higher = more signal

molecule	composite z-score
O=C1O[C@@H](c2ccccc2)[C@@H](c2ccccc2)N2[C@@H](c3ccc(O)cc3)[C@]3(C(=O)Nc4ccc(C#CC5=CCCCC5)cc43)[C@@H](C(=O)NC[C@H](O)c3ccccc3)[C@H]12	-0.0769
[N-]=[N+]=Nc1ccccc1C[C@]1(C(N)=O)N=C(c2ccc(OCCCO)cc2)O[C@H]1c1ccccc1N=[N+]=[N-]	0.162
CCOC(=O)C1=CC[C@@H](c2ccc(OCc3ccccc3)c(OC)c2)N(S(=O)(=O)c2ccc(C)cc2)[C@H]1c1ccc(SC)cc1	0.0659
COc1ccc([Si](C)(C)[C@@H]2[C@@H](CC(=O)N3Cc4ccccc4C[C@H]3CO)O[C@]3(C(=O)N(Cc4cccc(N5C(=O)c6cccc7cccc5c67)c4)c4ccccc43)[C@H]2C)cc1	-0.17
CC(CO)N1C(=O)[C@@H]2[C@H]3C(=O)OCC=C[C@H]3OC23C=CCN(Cc2ccccc2)C(=O)[C@@H]13 (some centres undefined)	-0.211
C=C(COC)C(=O)CC[C@@H](OC(=O)c1cccnc1)c1ccc(OCCO)cc1	-0.237
CN(C)C(=O)[C@@]1(CCS(=O)(=O)c2ccccc2)N=C(c2ccc(OCCCO)cc2)O[C@H]1c1ccccc1	0.207
COC(=O)C1=CC(CCCO)=CC(C2CC2)N(C)C=C1C(=O)OC (centres undefined)	0.449
C=C(C(=O)CC[C@@H](OC(C)=O)c1ccc(CO)o1)C(C)C	0.213
NCCCCCCNC(=O)[C@@H]1C[C@@H]2C(=O)N[C@@H](CCCCN)C(=O)N2[C@@H]1c1cccc(OCCO)c1	1.05
COCCOC(=O)N1C(=O)[C@@]2(c3cc(C#CC4=CCCCC4)ccc31)[C@H](c1ccccc1OCCO)N1[C@H](c3ccccc3)[C@H](c3ccccc3)OC(=O)[C@H]1[C@@H]2C(=O)Nc1nc2ccccc2s1	0.0253
CC(c1ccccc1)C(O)C1C=CC2C(=O)N(c3ccccc3)C(=O)C2N1Nc1ccc([N+](=O)[O-])cc1 (centres undefined)	-0.0146
O=C(N1CCCCC1)[C@@]1(CCS(=O)(=O)c2ccccc2)COC(c2ccc(OCCCO)cc2)=N1	-0.0064
COCCOC(=O)N1C(=O)[C@@]2(c3cc(C#CC4=CCCCC4)ccc31)[C@H](C(N)=O)[C@H]1C(=O)O[C@H](c3ccccc3)[C@H](c3ccccc3)N1[C@@H]2c1ccccc1OCCO	0.173
